- MEASURED_ON: Eaf3 CD (wild-type) (Saccharomyces cerevisiae)
- Sequence (Q12432 1-120): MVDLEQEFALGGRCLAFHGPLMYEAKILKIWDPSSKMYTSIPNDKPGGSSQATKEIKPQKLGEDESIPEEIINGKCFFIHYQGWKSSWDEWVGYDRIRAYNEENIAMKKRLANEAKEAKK
- MEASUREMENT_PROTOCOL: biochemical
- Type: binding
- RUN_PARAMETERS: pH 6.8; read-out: Dissociation constant (Kd)
METRIC: Kd

Would you kindly share the measured Kd for CN(C)C(N)=NCCC[C@H](N)C(=O)O [Rame2, asymmetrically di-methylated arginine] ?
> 10 mM

Origin of values: paper PMC7033311
